Experiment: qHTS Multiplex Assay to Identify Dual Action Probes in a Cell Model of Huntington: Cytoprotection (ATP);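 further: toxic huntingtin expression switched on by the ecdysone agonist tebufenozide; % of control where 0% means no effect; nearly all actives have a fitted effect of over 45% in size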
Details: PC12 HTT-Q103 induced, ATP luminescence, 40 h; series mostly up to 56.4 µM
Out of some 230,000 compounds screened, about 310 (0.13%) were called active. About 2% were inconclusive and are not listed. The full list was thinned out, with actives kept by preference.
MEASURED_ATTRIBUTE: cytoprotection (ATP increase)

>>> result("CC1(OC(=O)C2CCCC2)C(=O)C=C2C=C(c3ccc(C#N)cc3)OC=C2C1=O (stereo not given)")
"inactive"
>>> result("COC(=O)CCCC1=CC2=CC(=O)C(C)(OC(=O)c3cccs3)C(=O)C2=CN1c1ccc(CO)cc1 (stereo not given)")
"-11% [at 10 µM] (inactive)"
>>> result("C=C(C(C)=O)C(O)c1cccs1 (stereo not given)")
"inactive"
>>> result("CCn1c(-c2ccncc2)n[nH]c1=S")
"inactive"
>>> result("COC(=O)C1=C(C(=O)OC)[C@@H]2Nc3ccccc3[C@@]23C[C@@H](C(=O)OC)N(S(=O)(=O)c2ccc([N+](=O)[O-])cc2)C3=N1")
"9.32% [at 10 µM] (inactive)"
>>> result("CO[C@@]12[C@@H](COC(N)=O)C3=C(C(=O)C(C)=C(N)C3=O)N1C[C@@H]1N[C@@H]12")
"inactive"
>>> result("Nc1nc(CC(=O)CSc2ccc(Cl)cc2)nc(Nc2ccc(F)cc2)n1")
"-29.1% [at 10 µM] (inactive)"
>>> result("COc1ccc(-c2[nH]nc(-c3ccccc3)c2-c2nc3ccccc3[nH]2)cc1")
"inactive"
>>> result("COc1ccc(N2CCN(CCNC(=O)c3nnc(Cc4c(F)cccc4Cl)o3)CC2)cc1")
"7.41% [at 0.074 µM] (inactive)"
>>> result("C[C@H]1Cc2c(COc3ccccc3)nc3c(c2CO1)CN(C(=O)Nc1cccc(C#N)c1)CC3")
"-20.7% [at 10 µM] (inactive)"

Quickly give me recorded cytoprotection (ATP increase) for "COc1ccc(-c2nc3c(c4c2C[C@H](c2ccccc2)OC4)CN(C(=O)c2ccco2)CC3)c(C)c1"
-10% [at 10 µM] (inactive)

Quickly give me recorded cytoprotection (ATP increase) for "c1ccc(CSc2ncnc3c2sc2nc(N4CCOCC4)c4c(c23)CCCC4)cc1"
inactive

Quickly give me recorded cytoprotection (ATP increase) for C=CCOC(=O)NC(c1ccc(F)c(F)c1)C(C(=O)COC)C(=O)OC (stereo not given)
inactive

Quickly give me recorded cytoprotection (ATP increase) for O=C1c2ccccc2NC(c2ccc(-c3cccc(Cl)c3)o2)N1O (stereo not given)
-70.6% [at 10 µM] (inactive)

Quickly give me recorded cytoprotection (ATP increase) for "O=C(Nc1cccc(C(F)(F)F)c1)c1cc(Br)cc(Br)c1O"
inactive

Quickly give me recorded cytoprotection (ATP increase) for CCOC(=O)C1=C(C)c2ccccc2OC1C(=O)OCC (stereo not given)
inactive

Quickly give me recorded cytoprotection (ATP increase) for CCOC(=O)CCNC(=O)N1CCCC(C(=O)c2ccccc2SC)C1 (stereo not given)
2.06% [at 10 µM] (inactive)

Quickly give me recorded cytoprotection (ATP increase) for "Cc1csc(-c2nc3ccccc3n2C)n1"
-116% [at 1.9 µM] (inactive)

Quickly give me recorded cytoprotection (ATP increase) for "CCOC(=O)N1CCN(CC(=O)Nc2ccc(F)cc2)CC1"
-4.62% [at 10 µM] (inactive)

Quickly give me recorded cytoprotection (ATP increase) for OCC(CO)NC1C[C@](O)(CO)[C@@H](O)[C@H](O)[C@H]1O (stereo not given in full)
inactive

Quickly give me recorded cytoprotection (ATP increase) for "CC(C)c1cnc(NC(=O)Cc2ccccc2)s1"
inactive
